tested-on: CD73 in reactive astrocytes (Rattus norvegicus)
Sequence (P21588 29-576): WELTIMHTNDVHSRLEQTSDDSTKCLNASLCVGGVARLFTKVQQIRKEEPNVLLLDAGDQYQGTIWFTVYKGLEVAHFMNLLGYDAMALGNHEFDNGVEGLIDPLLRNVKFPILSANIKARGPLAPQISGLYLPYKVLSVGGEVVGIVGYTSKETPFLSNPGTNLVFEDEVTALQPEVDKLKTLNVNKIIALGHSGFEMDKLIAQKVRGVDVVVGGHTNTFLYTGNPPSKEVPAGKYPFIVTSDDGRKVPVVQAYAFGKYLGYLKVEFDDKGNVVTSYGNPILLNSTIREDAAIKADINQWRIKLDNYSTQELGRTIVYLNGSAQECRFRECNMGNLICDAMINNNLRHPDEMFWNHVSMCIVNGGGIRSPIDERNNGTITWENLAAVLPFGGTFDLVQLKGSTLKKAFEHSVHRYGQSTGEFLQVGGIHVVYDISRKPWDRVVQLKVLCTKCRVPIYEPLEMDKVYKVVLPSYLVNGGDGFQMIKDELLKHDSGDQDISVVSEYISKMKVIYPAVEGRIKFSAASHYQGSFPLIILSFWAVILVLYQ
method: CD73 enzyme assay in reactive astrocytes stimulated with TNFα or IL-1β
conditions: astrocytes stimulated with 0.1 μg/ml IL-1β; 1–250 μM
measurement-label: IC50 (µM)
The answer is to be given in µM; state only the numeric part.

Which IC50 is reported with CD73 in reactive astrocytes (Rattus norvegicus) for this entry: Cn1c(=O)n([C@@H]2O[C@H](COP(=O)(O)CP(=O)(O)O)[C@@H](O)[C@H]2O)cc/c1=N\OCc1ccc(Cl)cc1 [MRS4598] ? 5
